// data source = PubChem BioAssay AID504313

Molecular target: X-box-binding protein 1 (Homo sapiens) (UniProt P17861)
Experiment: XBP1 reporter suppression in cells – counter-screen, dose response (AID 504313);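 note: CHO cells carrying an XBP1 reporter stimulated with tunicamycin; potency is for inhibition of the tunicamycin-induced reporter signal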
Conditions: XBP1 reporter cell assay, percent of control
Active and inactive are the calls of the source. The rule behind the calls is not given here.
Possible outcomes: 1 (active), -1 (inactive)

- O=C(CCCOc1ccc(Cl)cc1Cl)N/N=C\C1CCCCC1: -1
- CCCOC(=O)c1ccc(Oc2cn[nH]c2-c2ccc(OC)cc2O)cc1: 1
- CCn1c(C)nc2cc(-c3nc4n(n3)Cc3ccccc3-4)ccc21: -1
- O=C(NCc1ccccc1Cl)c1ccc(S(=O)(=O)Nc2cccc(C(F)(F)F)c2)cc1: -1
- COc1ccc(N=c2oc3ccc(OC)cc3cc2-c2nc3ccccc3[nH]2)cc1: -1
- Cc1ccc(NC(=O)c2nc[nH]c2C(=O)N[C@@H](C)C(=O)OC(C)(C)C)cc1: 1
- CCCCn1c(=O)[nH]c(=O)c2c1nc(-c1ccc(OCCC)c(OCC)c1)n2C: -1
- CCn1c(=O)c(C(=O)Nc2nc3ccccc3[nH]2)c(O)c2ccccc21: -1
- CCCCCCCCNC(C)C(O)c1ccc(SC(C)C)cc1 (configuration not stated): 1
- CC(C)c1ccc(-c2cc(C(=O)N3N=C(C(F)F)CC3(O)C(F)F)c3ccccc3n2)cc1 (configuration not stated): 1
- Cc1ccccc1NC(=O)/C=C/c1ccc([N+](=O)[O-])s1: -1
- Cc1ccc(NN2C(=O)C=C(c3ccc(Cl)cc3)C2=O)cc1: -1
- CCc1ccc(OCc2n[nH]c(=S)n2C(C)CCCC(C)C)cc1 (configuration not stated): -1
- NC(=O)c1cc(-c2ccccc2)nc(N2CCCCCC2)n1: -1
- CCOC(=O)C1=C(O)/C(=C/c2ccc(CNC(=O)C(=O)Nc3ccc(C)cc3)o2)N=C1C: -1
- CCc1ccc2[nH]c(=O)c(C(c3nnnn3Cc3ccco3)N3CCC(C)CC3)cc2c1 (configuration not stated): -1
- CS(=O)(=O)c1nc(-c2ccco2)cc(C(F)(F)F)n1: -1

---

Biological target: X-box-binding protein 1 (Homo sapiens) (UniProt P17861)
Experiment: XBP1 reporter suppression in cells – counter-screen, dose response (AID 504313);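 note: CHO cells carrying an XBP1 reporter stimulated with tunicamycin; potency is for inhibition of the tunicamycin-induced reporter signal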
Details: XBP1 reporter cell assay, percent of control
Calls of active or inactive are those of the source. No rule for the calls is given here.
Possible outcomes: active, inactive

* CN(C)c1ccc(/C=C2\SC(=O)N(CCc3nnc(N)s3)C2=O)cc1 | inactive
* CC(C)(C)c1ccc(C2CC2C(=O)N/N=C\c2ccc[nH]2)cc1 (configuration not stated) | inactive
* CC(C)(C)c1ccc(Oc2ccc(N)cc2)cc1 | active
* Cc1cccc(C(=O)c2cnc3ccccc3c2-c2ccccc2)c1 | inactive
* C=C(C)COc1ccc(-c2n[nH]c(C)c2-c2ccc(Br)cc2)c(O)c1 | inactive
* CCOc1cc(/C=C2/C(=O)ON=C2C)ccc1OCc1ccccc1F | inactive
* C#CC(=O)N(c1cc(OC)ccc1OC)C(C(=O)NC1CCCC1)c1cccs1 (configuration not stated) | inactive
* COc1cc(C)nc(N2CCCC(C(=O)Nc3cccc(Cl)c3C)C2)n1 (configuration not stated) | inactive
* CCOc1ccc(N2C(=O)/C(=C\c3ccc(O)c(OC)c3)S(=O)(=O)C2c2cccc([N+](=O)[O-])c2)cc1 (configuration not stated) | inactive
* CCCOc1ccc(Cc2c(Cl)nc(SC)nc2NC)cc1 | inactive
* CC(C)(C)C1C/C(=C/c2ccccn2)C(=O)/C(=C/c2ccccn2)C1 (configuration not stated) | active
* CCN1CCN(Cc2ccc(NC(=O)c3ccc(C)c(NC(=O)c4c[nH]c5cc(C(F)(F)F)ccc5c4=O)c3)cc2C(F)(F)F)CC1 | active
